Run Description: AUC (0 to 24 hrs) in C57BL6 mouse at 31 mg/kg, po
Format: ADME, organism-based
Set-up: time < 24 hr, dose 31 mg/kg, route oral
Test Parameters: plasma

Input Smiles	AUC(0-t) at 24 h
C[C@@H]1CN(c2nc(C(F)(F)F)no2)CCN1c1ncc(OCc2ccc(CS(C)(=O)=O)cc2F)cn1	151 µM·h

----------
Run Description: Cmax in C57BL6 mouse at 57 mg/kg, po
Assay type: ADME, organism-based
Parameters: dose 57 mg/kg, route oral
Test Parameters: in vivo

Input Smiles	Cmax
C[C@@H]1CN(c2nc(C(F)(F)F)no2)CCN1c1ncc(OCc2ccc(CS(C)(=O)=O)cc2F)cn1	29 µM

----------
Run Description: Intrinsic clearance in dog hepatocytes assessed per million cells
Type: ADME, cell-based, Canis lupus familiaris, Hepatocyte
Test Parameters: read-out: CLH

Input Smiles	hepatocyte CLint
C[C@@H]1CN(c2nc(C(F)(F)F)no2)CCN1c1ncc(OCc2ccc(CS(C)(=O)=O)cc2F)cn1	< 2 µL/min/1e6 cells

----------
Run Description: Cmax in beagle dog at 5 mg/kg, po
Type: ADME, organism-based, Canis lupus familiaris
Design: dose 5 mg/kg, route oral
Test Parameters: in vivo

Input Smiles	Unit String	Cmax
C[C@@H]1CN(c2nc(C(F)(F)F)no2)CCN1c1ncc(OCc2ccc(CS(C)(=O)=O)cc2F)cn1	µM	1.5

----------
Run Description: Distribution coefficient, log D between 1-octonol and aqueous phosphate buffer at pH 7.4
Type: physicochemical
Test Parameters: 1-octanol/aqueous phosphate buffer
Note to self: values exactly at 3 are y. So logD at or above 3 is y, below is n.

Molecule	Class Label
C[C@@H]1CN(c2nnc(C(F)(F)F)o2)CCN1c1ncc(OCc2ccc(-n3cnnn3)cc2F)cn1	y
C[C@@H]1CN(c2nnc(C(F)(F)F)o2)CCN1c1ncc(OCc2ccc(CS(C)(=O)=O)cc2)cn1	n
C[C@@H]1CN(C(=O)OC2(C(F)(F)F)COC2)CCN1c1ncc(OCc2ccc(OS(C)(=O)=O)cc2F)cn1	y
C[C@@H]1CN(c2nnc(C(F)(F)F)o2)CCN1c1ncc(OCc2ccc(OS(C)(=O)=O)cc2F)cn1	y
C[C@@H]1CN(c2nc(C(F)(F)F)no2)CCN1c1ncc(OCc2ccc(CS(C)(=O)=O)cc2F)cn1	y
C[C@@H]1CN(c2nnc(C(F)(F)F)o2)CCN1c1ncc(OCc2ccc(CS(C)(=O)=O)cc2F)cn1	n
C[C@@H]1CN(c2nnc(C(F)(F)F)o2)CCN1c1ncc(OCc2ccc(C[S+](C)[O-])cc2F)cn1 (stereo partly specified)	n
C[C@@H]1CN(c2nc(C(F)(F)F)no2)CCN1c1ncc(OCc2ccc(S(C)(=O)=O)cc2F)cn1	y
C[C@@H]1CN(c2nc(C(F)(F)F)no2)CCN1c1ncc(OCc2ccc(CS(C)(=N)=O)cc2F)cn1 (stereo partly specified)	n
C[C@@H]1CN(c2nc(C(F)(F)F)no2)CCN1c1ncc(OCc2ccc(N=S(C)(C)=O)cc2F)cn1	y
C[C@@H]1CN(C(=O)OC2(C(F)(F)F)COC2)CCN1c1ncc(OCc2ccc(CS(C)(=O)=O)cc2F)cn1	n
C[C@@H]1CN(c2nnc(C(F)(F)F)o2)CCN1c1ncc(OCc2ccc(S(C)(=O)=O)cc2C#N)cn1	n
CC(C)c1noc(N2CCN(c3ncc(OCc4ccc(CS(C)(=O)=O)cc4F)cn3)[C@H](C)C2)n1	y
C[C@@H]1CN(c2nc(C(F)(F)F)no2)CCN1c1ncc(OCc2ccc(C[S+](C)[O-])cc2F)cn1 (stereo partly specified)	y
C[C@@H]1CN(c2nnc(C(F)(F)F)o2)CCN1c1ncc(OCc2ccc(C#N)cc2C#N)cn1	n
C[C@@H]1CN(c2nnc(C(F)(F)F)o2)CCN1c1ncc(OCc2ccc(CS(C)(=N)=O)cc2F)cn1 (stereo partly specified)	n
C[C@@H]1CN(c2nnc(C(F)(F)F)o2)CCN1c1ncc(OCc2ccc(S(C)(=O)=O)cc2)cn1	n
C[C@@H]1CN(c2nnc(C(F)(F)F)o2)CCN1c1ncc(OCc2ccc(C#N)cc2F)cn1	y
CC(C)c1noc(N2CCN(c3ncc(OCc4ccc(S(C)(=O)=O)cc4F)cn3)[C@H](C)C2)n1	y
